# TARGET_OF_ASSAY: Endonuclease III-like protein 1 (Homo sapiens) (UniProt P78549);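 further: enzyme assay tracking NTHL1 cutting and release of a quenched double-stranded DNA oligo substrate, read as fluorescence at 594 nm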
# Sequence (whole entry): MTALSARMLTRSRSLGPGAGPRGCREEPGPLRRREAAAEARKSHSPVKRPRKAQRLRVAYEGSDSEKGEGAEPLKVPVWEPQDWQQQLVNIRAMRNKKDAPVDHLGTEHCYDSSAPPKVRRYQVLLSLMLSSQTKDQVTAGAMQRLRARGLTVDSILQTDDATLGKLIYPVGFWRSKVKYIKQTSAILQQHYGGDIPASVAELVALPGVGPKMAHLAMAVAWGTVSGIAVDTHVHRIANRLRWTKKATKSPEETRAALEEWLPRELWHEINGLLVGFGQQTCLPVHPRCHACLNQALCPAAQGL
# ASSAY_SETUP: Compound Concentration 10.0 uM, Hit No
# Description: Inhibition of NTHL1 by quantifying inhibition of NTHL1-mediated cleavage and dissociation of quenched duplex DNA oligonucleotides, measured as fluorescence at 594 nm.
Reported inhibition values follow for various compounds
Give a bare numeral; the unit % is implied.

SMILES_STRUCTURE | UNIT_NAME | inhibition
O=C(O)[C@@H]1[C@@H](Cn2nnc3ccccc3c2=O)CC[C@H]1C(=O)c1ccc(OCCC2CCOCC2)cc1 | % | -5.23
CC[C@@H](C[C@H]1COC(N)=N1)c1ccccc1 | % | 17.9
C=C(C)[C@H]1CN[C@H](C(=O)O)[C@H]1CC(=O)O | % | -1.08
NS(=O)(=O)c1c(Cl)ccc(NC(=O)Nc2cccc(Cl)c2Cl)c1O | % | 29

Let's switch to this compound now.
// sample CCCSc1nc(N[C@@H]2C[C@H]2c2ccc(F)c(F)c2)c2nnn([C@@H]3C[C@H](OCCO)[C@@H](O)[C@H]3O)c2n1 , its inhibition was 11.4
